Measured values drawn from the supplement of paper PMC6555819 for this set.

Measured PBM binding z-score of individual entries
- System: VDR:RXRa (NR concentration 270 nM, RXRa partner concentration 90 nM)
- protocol_summary: PBM binding z-score (relative to random genomic background probes); higher = stronger binding; sequences stand for … in GC…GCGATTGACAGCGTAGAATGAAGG

Answered examples (8):
> print(dat)
                       residue.string                                       tgt  experimental.readout  reported.result
1  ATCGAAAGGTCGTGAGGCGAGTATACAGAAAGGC  VDR:RXRa (NR concentration 270 nM, RXRa partner concentration 90 nM)   PBM binding z-score             3.18
2  CCTAGCAGGCCAGGGTCACTCATGCATTTCGCTT  VDR:RXRa (NR concentration 270 nM, RXRa partner concentration 90 nM)   PBM binding z-score             2.14
3  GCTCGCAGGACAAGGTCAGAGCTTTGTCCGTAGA  VDR:RXRa (NR concentration 270 nM, RXRa partner concentration 90 nM)   PBM binding z-score            0.842
4  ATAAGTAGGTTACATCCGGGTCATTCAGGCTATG  VDR:RXRa (NR concentration 270 nM, RXRa partner concentration 90 nM)   PBM binding z-score             4.06
5  CGTCCAAGGTCATAGGAGGACAGTGAAGACAGAT  VDR:RXRa (NR concentration 270 nM, RXRa partner concentration 90 nM)   PBM binding z-score             5.21
6  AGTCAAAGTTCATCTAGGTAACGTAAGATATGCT  VDR:RXRa (NR concentration 270 nM, RXRa partner concentration 90 nM)   PBM binding z-score             4.59
7  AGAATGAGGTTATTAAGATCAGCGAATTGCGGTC  VDR:RXRa (NR concentration 270 nM, RXRa partner concentration 90 nM)   PBM binding z-score             2.57
8  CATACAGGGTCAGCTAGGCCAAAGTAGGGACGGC  VDR:RXRa (NR concentration 270 nM, RXRa partner concentration 90 nM)   PBM binding z-score             4.73

Answer with reported PBM binding z-score of `CGTCAAAGTTCAACTAAGGTAACCTAAAGCACGC`
4.68

Fill in reported PBM binding z-score for this entry: `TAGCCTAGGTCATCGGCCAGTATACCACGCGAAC`
2.15

Identify measured PBM binding z-score corresponding to `CAAACTAGGTCAAGGGTCAAAGTCGAGCCAACCA`
5.5

// fetch PBM binding z-score given entry `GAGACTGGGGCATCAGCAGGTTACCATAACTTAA`
0.317

###

- Tested on: RXRa homodimer (NR concentration 180 nM)
- protocol_summary: PBM binding z-score (relative to random genomic background probes); higher = stronger binding; sequences stand for … in GC…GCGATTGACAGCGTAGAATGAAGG
experimental_readout: PBM binding z-score
Could you keep your reply to the number by itself?

> print(dat)
                       residue.string                                       tgt  reported.result
1  AGAATTAGGTTATTAAGATCAGGGAATTGCGGTC  RXRa homodimer (NR concentration 180 nM)            0.275
2  TCTTGAAGATCAAGCAGGTTAAGAAAGCCTGAGT  RXRa homodimer (NR concentration 180 nM)            0.318
3  ACTAGTTGGTCAGCTGAGGTGACACACAATTCGG  RXRa homodimer (NR concentration 180 nM)            0.902
4  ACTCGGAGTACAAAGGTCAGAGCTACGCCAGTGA  RXRa homodimer (NR concentration 180 nM)             5.37
5  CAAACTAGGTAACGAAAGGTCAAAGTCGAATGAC  RXRa homodimer (NR concentration 180 nM)             6.35

Read the entry `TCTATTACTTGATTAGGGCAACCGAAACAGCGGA` and write its reported PBM binding z-score.
0.781

Return PBM binding z-score for the following sequence: `GTACCAAGGTGAATAGGTCGTTGAGGAGTAGGCG`
1.63

Provide only the value of recorded PBM binding z-score for `TCTAACAGGCCAGAGGGTCACTCAAGAGGTACGG`
2.88

Identify measured PBM binding z-score corresponding to `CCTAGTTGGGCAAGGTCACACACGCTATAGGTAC`
4.41

Tell me PBM binding z-score reported for `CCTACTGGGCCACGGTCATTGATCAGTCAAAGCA`
-0.391

Give reported PBM binding z-score value for `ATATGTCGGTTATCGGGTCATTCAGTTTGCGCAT`
2.51

Let me know recorded PBM binding z-score for `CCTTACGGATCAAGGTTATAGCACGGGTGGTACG` , thanks.
0.793

Find the measured PBM binding z-score of `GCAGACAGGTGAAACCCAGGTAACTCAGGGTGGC` and report it.
0.749

For the sequence `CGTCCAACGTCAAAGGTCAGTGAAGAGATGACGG` , give its measured PBM binding z-score value.
5.09

Give recorded PBM binding z-score. `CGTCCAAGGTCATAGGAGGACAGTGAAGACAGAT`
5.55

Please give measured PBM binding z-score of the following entry: `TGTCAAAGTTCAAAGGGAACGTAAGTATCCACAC`
4.94

Retrieve PBM binding z-score measured for `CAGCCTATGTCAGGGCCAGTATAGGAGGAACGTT` and print it.
-0.248

###

- Test system: LXRb homodimer (NR concentration 270 nM)
- protocol_summary: PBM binding z-score (relative to random genomic background probes); higher = stronger binding; sequences stand for … in GC…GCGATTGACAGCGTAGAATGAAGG
// bucketize PBM binding z-score: low (below -0.8), intermediate (-0.8 to below -0.2), high (-0.2 or more)

Use the examples below as a reference point.
> print(dat)
                       residue.string      category
1  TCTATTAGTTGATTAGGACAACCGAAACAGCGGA          high
2  CCTCGGAGGACAACAGGAGGTCCGAGCTGCCAGA           low
3  ACAGACAGGTGAGTGAAAGTAACTCAGCTGGACG  intermediate

Consider the record given below.
Determine which band this sequence sits in: `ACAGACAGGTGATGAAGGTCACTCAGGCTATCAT`
high

###

- System: PPARg homodimer (NR concentration 180 nM)
- protocol_summary: PBM binding z-score (relative to random genomic background probes); higher = stronger binding; sequences stand for … in GC…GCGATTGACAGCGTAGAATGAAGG
experimental_readout: PBM binding z-score

> print(dat)
                       residue.string  reported.result
1  TCTCGGAGGACACGAAAGGTCAGAGCACGACATC             4.15
2  CTACCAAGGTGAAAAAGGTCGTTGATTACTATTC            0.878

// fetch PBM binding z-score given entry `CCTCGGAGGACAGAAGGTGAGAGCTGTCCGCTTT`
0.19

Item `TAGCCTAGGTCAGATCGGGCCTGTATACGCTATA` : provide PBM binding z-score
0.016

For the sequence `CCTATTAGGTGACCATAAGGGCAACCGAAGCTCG` , give its measured PBM binding z-score value.
0.93

###

- Tested on: THRa homodimer (NR concentration 90 nM)
- protocol_summary: PBM binding z-score (relative to random genomic background probes); higher = stronger binding; sequences stand for … in GC…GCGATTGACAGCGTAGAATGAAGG
# PBM binding z-score binned as bucket 1 = under -0.2, bucket 2 = from -0.2 up to 1, bucket 3 = 1 and over

Solved entries (count: 5):
> print(dat)
                       residue.string  category
1  CCTAGCAGGCCAGGGTTACTCAAGCATTTCGCTT  bucket 1
2  CGTCCAAGGGCAGAGAGGTCAGTGAATGCCGAGT  bucket 2
3  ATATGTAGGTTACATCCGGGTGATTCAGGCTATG  bucket 2
4  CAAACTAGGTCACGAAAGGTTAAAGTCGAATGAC  bucket 3
5  CCTATTAGTTGACCATAAGGGCAACCGAAGCTCG  bucket 3

Hello team, could you let me know which band the following sequence falls into: `CGAACGAGGGCATGACTTGATAGCAAATGCCGAT`
bucket 2

Class (by measured PBM binding z-score) for `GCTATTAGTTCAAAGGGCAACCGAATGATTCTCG`
bucket 1

Lab log: `TCATATAGGTAAAACGTGAAAGTCGGTGTGGTAA` — assign PBM binding z-score category
bucket 2

Quick check: band for `ATATGTAGGTCACATCCGGGTCATTCAGGCTATG`
bucket 3

Field: class (PBM binding z-score) — entry: `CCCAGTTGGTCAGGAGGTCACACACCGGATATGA`
bucket 3

Exam item: assign `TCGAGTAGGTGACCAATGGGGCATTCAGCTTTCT` to the correct category.
bucket 1

Returns: class label. Input: `ACTATTAGTTGACTTAGGGTAACCGATACGACGC`
bucket 3
